A collection of molecules and their measured Emax
- Measured on: ER-α in MCF-7 cells (Homo sapiens)
- Sequence (P03372 whole entry): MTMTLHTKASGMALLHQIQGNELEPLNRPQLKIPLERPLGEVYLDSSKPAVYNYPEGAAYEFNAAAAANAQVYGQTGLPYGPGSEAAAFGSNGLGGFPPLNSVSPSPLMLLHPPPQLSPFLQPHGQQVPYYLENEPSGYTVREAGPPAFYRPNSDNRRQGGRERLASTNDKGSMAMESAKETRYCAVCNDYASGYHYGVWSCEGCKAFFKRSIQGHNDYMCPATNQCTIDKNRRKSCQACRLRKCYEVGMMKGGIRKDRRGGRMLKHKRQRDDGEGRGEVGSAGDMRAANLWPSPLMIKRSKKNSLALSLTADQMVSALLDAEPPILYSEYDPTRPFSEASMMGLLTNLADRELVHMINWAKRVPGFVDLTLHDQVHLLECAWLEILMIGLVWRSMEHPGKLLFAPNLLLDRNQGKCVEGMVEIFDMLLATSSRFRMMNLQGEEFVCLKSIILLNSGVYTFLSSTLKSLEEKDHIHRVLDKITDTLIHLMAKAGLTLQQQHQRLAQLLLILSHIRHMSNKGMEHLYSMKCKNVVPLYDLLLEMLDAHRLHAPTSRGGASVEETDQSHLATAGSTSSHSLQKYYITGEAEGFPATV
- Method description: Breast cancer cell ER-α in cell western assay (SP1)
- Format: cell-based
- Design: endogenous in cells; host or cells: MCF-7
- Recorded conditions: MCF7, SP1 antibody, 4 or 24 hr post compound addition, read-out: ER-α In Cell Western Assay (SP1) Max Response

Example entries and their recorded answers appear below.
Molecule | Measured on | Emax
CC/C(=C(/c1ccc(/C=C/c2nn[nH]n2)cc1)c1ccc2scnc2c1)c1ccccc1 [Compound 444] | ER-α in MCF-7 cells (Homo sapiens) | ≥ 40%
CC/C(=C(/c1ccc(/C=C/C(=O)O)cc1)c1ccc2[nH]ncc2c1)c1cnc(C)s1 [Compound 229] | ER-α in MCF-7 cells (Homo sapiens) | ≥ 40%
CC/C(=C(/c1ccc(/C=C/C(=O)O)cc1)c1ccc2c(c1)OCC(=O)N2)c1ccccc1 [Compound 107] | ER-α in MCF-7 cells (Homo sapiens) | ≥ 40%
CC/C(=C(/c1ccc(/C=C/C(=O)O)cc1)c1ccc2[nH]ncc2c1)c1cncnc1 [Compound 220] | ER-α in MCF-7 cells (Homo sapiens) | < 40%
CCOC(=O)/C=C/c1ccc(/C(=C(/CC)c2ccccc2)c2cccc3[nH]ncc23)cc1 [Compound 175] | ER-α in MCF-7 cells (Homo sapiens) | ≥ 40%
CC/C(=C(/c1ccc(/C=C/C(=O)O)cc1)c1cc2ccccc2o1)c1ccc(F)cc1Cl [Compound 169] | ER-α in MCF-7 cells (Homo sapiens) | ≥ 40%

So what's the measured Emax for this one? CC/C(=C(/c1ccc(/C=C/C(N)=O)cc1)c1ccc2[nH]ncc2c1)c1ccc(F)cc1Cl [Compound 417] ≥ 40%

So what's the measured Emax for this one? CC/C(=C(/c1ccc(/C=C/c2nn[nH]n2)cc1)c1ccc2scnc2c1)c1ccc(F)cc1Cl [Compound 445] ≥ 40%

So what's the measured Emax for this one? CCCS(=O)(=O)NC(=O)/C=C/c1ccc(/C(=C(/CC)c2ccc(F)cc2Cl)c2ccc3[nH]ncc3c2)cc1 [Compound 409] ≥ 40%

So what's the measured Emax for this one? CC/C(=C(/c1ccc(/C=C/C(=O)O)cc1)c1ccc2[nH]ncc2c1)c1ccc(C(=O)N(C)C)cc1F [Compound 212] ≥ 40%

So what's the measured Emax for this one? CC/C(=C(/c1ccc(/C=C/C(=O)O)cc1)c1ccc2[nH]ncc2c1)c1cccc(Oc2ncccn2)c1 [Compound 363] ≥ 40%

So what's the measured Emax for this one? CC/C(=C(/c1ccc(/C=C/C(=O)O)cc1)c1ccc2[nH]ncc2c1)c1ccc(CC(=O)O)cc1 [Compound 328] < 40%

So what's the measured Emax for this one? CC/C(=C(/c1ccc(/C=C/C(=O)O)cc1)c1ccc2[nH]ncc2c1)c1ccc(-c2nccs2)cc1 [Compound 387] ≥ 40%
